Ref: BindingDB's records for doi:10.1016/j.bmcl.2004.01.093

molecular target: Protein phosphatase 1 catalytic subunit (Oryctolagus cuniculus); experiment: Inhibitory activity against protein phosphatase-1 from rabbit skeletal muscle
pIC50: −log10 of the molar value.
measured.property: pIC50

(Q) Fill in the recorded pIC50 for this compound, with Protein phosphatase 1 catalytic subunit (Oryctolagus cuniculus) as test system: N#CC[C@]12C=C[C@H](O1)[C@@H]1C(=O)OC(=O)C12 (stereo partly specified)
(A) < 4.00

(Q) Fill in the recorded pIC50 for this compound, with Protein phosphatase 1 catalytic subunit (Oryctolagus cuniculus) as test system: COC(=O)c1cccc(NC(=O)C2C(C(=O)O)[C@@H]3C=C[C@H]2O3)c1 (stereo partly specified)
(A) 4.22

(Q) Fill in the recorded pIC50 for this compound, with Protein phosphatase 1 catalytic subunit (Oryctolagus cuniculus) as test system: CC(=O)NC[C@@]12C=C[C@@H](O1)C1C(=O)OC(=O)[C@H]12 (stereo partly specified)
(A) < 4.00

(Q) Fill in the recorded pIC50 for this compound, with Protein phosphatase 1 catalytic subunit (Oryctolagus cuniculus) as test system: CC(=O)NC[C@@]12CC[C@@H](O1)C1C(=O)OC(=O)[C@H]12 (stereo partly specified)
(A) < 4.00

(Q) Fill in the recorded pIC50 for this compound, with Protein phosphatase 1 catalytic subunit (Oryctolagus cuniculus) as test system: CNC(=O)C1C(C(=O)O)[C@@H]2C=C[C@H]1O2 (stereo partly specified)
(A) < 4.00

(Q) Fill in the recorded pIC50 for this compound, with Protein phosphatase 1 catalytic subunit (Oryctolagus cuniculus) as test system: CCOC(=O)c1ccc(NC(=O)C2C(C(=O)O)[C@@H]3C=C[C@H]2O3)cc1 (stereo partly specified)
(A) 4.12
